tested on: MDA-N; assay: NCI tumour cell line growth inhibition, 48 h
Active and inactive are the calls of the source. Cut-off read from the data, not from the text of the source: active = GI50 up to about 1.1 µM and inactive = higher.
Reported GI50 values follow for various molecules

molecule | GI50
COC1OC(C(C)O)C2OC(C)(C)OC12 (stereo unspecified) | > 100 µM (inactive)
Nc1nc(Cl)c(/C=N\O)c(NCC2(CO)CC(=O)C2)n1 | 96.4 µM (inactive)
CCc1nnc(CC)n1-n1c(Cc2ccccc2)n[nH]c1=O | > 100 µM (inactive)
COC(CN(C(=O)c1ccccc1)C1CCC2(SCCS2)c2[nH]c3ccccc3c21)OC (stereo unspecified) | 12.9 µM (inactive)
C(=N\c1ccc(-c2nc3ccccc3[nH]2)cc1)/c1cccs1 | > 100 µM (inactive)
Cc1ccc2c(C(=O)c3c(C)n(CCN4CCOCC4)c4ccccc34)cccc2c1 | 4.06 µM (inactive)
N=c1nc2n(cc1F)[C@@H]1O[C@H](CO)[C@@H](O)[C@@H]1O2 | > 100 µM (inactive)
O=C(NN=C(c1ccccc1)c1ccccc1)/C(O)=C/C(=O)c1ccc(Cl)cc1 | 40.5 µM (inactive)
COC(=O)C1=C(C(=O)OC)SC2(S1)C1=C(CCC1)SC(C(=O)OC)=C2C(=O)OC | 14.5 µM (inactive)
COC(=O)c1ccc(NCc2cc(O)ccc2O)cc1O | 10.7 µM (inactive)
COc1cc(/C=C2\C(=O)N(c3cccc([N+](=O)[O-])c3)C(c3ccccc3)S2(=O)=O)cc(OC)c1OC (stereo unspecified) | 31.1 µM (inactive)
CC(CC(C)[C@H]1CCC2[C@H]3C(CC[C@@]21C)[C@@]1(C)CCC(O)C[C@H]1C[C@@H]3O)C(=O)O (stereo partly specified) | > 100 µM (inactive)
COC(=O)/C=C\C(C#N)(C#N)/N=C/c1ccc(Br)s1 | 7.98 µM (inactive)
CNC(=O)c1nnn(Cc2ccccc2)c1S | > 100 µM (inactive)
O=C(Cn1c(=O)oc2ccc(C(=O)c3ccc(F)cc3)cc21)c1ccc([N+](=O)[O-])cc1 | 21 µM (inactive)
CCc1nc(N)c2nc(-c3ccc(C#N)cc3)oc2n1 | > 100 µM (inactive)
COc1ccc2c(c1)CC[C@@H]1[C@@H]2CC[C@]2(C)C(=O)/C(=C/c3ccc(O)c(OC)c3)C[C@@H]12 | 57.1 µM (inactive)
COc1cc2c(c(OC)c1)/C(=C/Sc1ccccc1)C(=O)N(C(C)(C)C)C2 | 23.5 µM (inactive)
O=C1O[C@H](c2ccc3c(c2)OCO3)[C@H]2CO[C@@H](c3ccc4c(c3)OCO4)[C@@H]12 | > 100 µM (inactive)
O=C(Nc1ccccc1)N1CC(CN2CCN(c3ccccc3)CC2)OC1=O (stereo unspecified) | > 100 µM (inactive)
CSC1=N/C(=C\c2ccc(C)cc2)C(=O)N1CN1CCCCC1 | > 100 µM (inactive)
C=CC(C)(C)/C=C/c1ccc(O)cc1 | 35 µM (inactive)
Cc1cn(CC2=NCC(C)(C)N2)c(=O)[nH]c1=O | > 100 µM (inactive)
COC(=O)/C=C/c1ccc2c(c1)CCC2 | > 100 µM (inactive)
Cc1occc(=O)c1O [MALTOL] | > 100 µM (inactive)
Fc1ccc(Nc2nnc(-c3ccccn3)s2)cc1 | > 100 µM (inactive)
CC[C@@H]1CC[C@@H]2[C@H](CC[C@]3(C)[C@@H](OC(C)=O)CC[C@@H]23)[C@H]1COC(C)=O | 24.9 µM (inactive)
COc1ccc(N2C(=O)c3cc(C)cnc3S2(=O)=O)cc1 | > 100 µM (inactive)
Clc1ccc(Cc2nc3cc(Cl)c(Cl)cc3n2CC2CCCN3CCCCC23)cc1 (stereo unspecified) | 11.7 µM (inactive)
O=C1C[C@@]23CCC4(CC2CCC[C@H]3O1)OCCO4 (stereo partly specified) | > 100 µM (inactive)
CCCCCCCCCCCCCCCC(=O)OCC1OC(OC)C(NC(=O)N(CCCl)N=O)C(O)C1O (stereo unspecified) | 15.1 µM (inactive)
CCOC1NC(/N=C/c2ccc(OC)cc2)=C(C#N)C1C#N (stereo unspecified) | 49.2 µM (inactive)
COC(=O)CCCC1(CCCC(=O)OC)CCCCCCCCC(CCCC(=O)OC)(CCCC(=O)OC)C(=O)C1=O | > 100 µM (inactive)
CC1(C)C2CC3C4CC5(Nc6ccccc6C5N41)[C@]3(C)CC2=O (stereo partly specified) | > 50 µM (inactive)
Oc1nc2nnc(COc3ccc(Cl)cc3Cl)n2nc1Cc1ccccc1 | > 100 µM (inactive)
Cc1cc(S(=O)(=O)Nc2nc(N)n[nH]2)c(S)cc1Cl | > 10 µM (inactive)
CCOC(=O)n1ccc2c(C(=O)OC)c(C(=O)OC)cc(/C(=C/C(=O)OC)C(=O)OC)c21 | 83.6 µM (inactive)
C[C@@H](C(=O)O)N1C(c2ccco2)=C(/C(C=O)=C\c2ccco2)C(=O)/C1=C\c1ccco1 | > 100 µM (inactive)
O=C1OC(c2ccco2)=N/C1=C\c1ccc(Cl)c(Cl)c1 | > 100 µM (inactive)
COc1ccc(/C=C/C(=O)OC2CC34CCNC35CC(OC5(OC)C2OC)c2ccc(OC)c(O)c24)cc1O (stereo unspecified) | > 100 µM (inactive)
O=C(NCCN(CCNC(=O)c1cccc(O)c1O)CCNC(=O)c1cccc(O)c1O)c1cccc(O)c1O [TRENCAM] | 9.31 µM (inactive)
